experimental.target: recombinant alpha-glucosidase II (murine full-length glucosidase II, alpha and beta subunits, Glu 2) (Mus musculus, UniProt Q8BHN3)
Construct: made in house; host or cells: HEK-293T cells transduced with BacMam viruses (75% alpha, 25% beta); protein harvested from culture supernatant
Sequence (O08795 15-521): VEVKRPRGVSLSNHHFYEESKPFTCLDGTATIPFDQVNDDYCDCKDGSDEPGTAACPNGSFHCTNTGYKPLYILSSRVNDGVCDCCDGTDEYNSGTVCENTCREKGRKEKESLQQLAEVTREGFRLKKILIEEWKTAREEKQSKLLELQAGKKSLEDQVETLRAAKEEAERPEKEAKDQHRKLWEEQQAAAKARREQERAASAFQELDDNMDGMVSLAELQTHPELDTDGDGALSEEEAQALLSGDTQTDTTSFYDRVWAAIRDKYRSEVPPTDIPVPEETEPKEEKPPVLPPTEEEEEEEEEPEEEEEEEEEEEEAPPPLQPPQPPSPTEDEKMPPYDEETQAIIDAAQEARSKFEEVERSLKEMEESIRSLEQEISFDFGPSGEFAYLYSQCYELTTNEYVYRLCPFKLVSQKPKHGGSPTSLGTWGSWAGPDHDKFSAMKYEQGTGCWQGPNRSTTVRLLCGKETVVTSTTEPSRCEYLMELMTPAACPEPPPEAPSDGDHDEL
Sequence (Q8BHN3 33-944): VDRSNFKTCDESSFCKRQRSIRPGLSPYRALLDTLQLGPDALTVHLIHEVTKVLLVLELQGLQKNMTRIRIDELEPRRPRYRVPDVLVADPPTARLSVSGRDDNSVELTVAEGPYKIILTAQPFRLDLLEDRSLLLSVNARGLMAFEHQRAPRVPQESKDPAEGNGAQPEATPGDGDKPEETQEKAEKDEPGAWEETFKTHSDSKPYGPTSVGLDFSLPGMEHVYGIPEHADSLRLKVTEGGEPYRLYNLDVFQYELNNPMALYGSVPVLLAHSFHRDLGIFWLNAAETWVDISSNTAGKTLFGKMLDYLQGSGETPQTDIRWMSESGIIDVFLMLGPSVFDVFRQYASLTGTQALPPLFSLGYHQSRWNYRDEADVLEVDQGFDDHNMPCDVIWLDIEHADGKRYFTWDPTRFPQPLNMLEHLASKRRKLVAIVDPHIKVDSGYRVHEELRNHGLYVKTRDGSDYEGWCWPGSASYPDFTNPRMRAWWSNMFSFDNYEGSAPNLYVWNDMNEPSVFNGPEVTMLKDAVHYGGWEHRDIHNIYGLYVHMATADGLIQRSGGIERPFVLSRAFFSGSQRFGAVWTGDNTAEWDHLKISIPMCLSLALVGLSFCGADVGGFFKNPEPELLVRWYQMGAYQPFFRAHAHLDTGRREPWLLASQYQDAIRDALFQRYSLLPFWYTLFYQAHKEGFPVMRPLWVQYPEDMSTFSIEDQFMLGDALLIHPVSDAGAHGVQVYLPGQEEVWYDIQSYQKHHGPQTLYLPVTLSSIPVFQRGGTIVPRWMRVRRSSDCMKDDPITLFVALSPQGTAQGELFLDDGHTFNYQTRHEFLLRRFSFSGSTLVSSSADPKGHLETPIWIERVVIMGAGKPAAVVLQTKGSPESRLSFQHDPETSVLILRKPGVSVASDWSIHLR
assay.remarks: Alpha-glucosidase II assay (4-methylumbelliferyl-alpha-D-pyranoside substrate, fluorescence)
Assay type: biochemical
assay.context: Glucosidase 2; read-out: Glu2 IC50
measured.metric: IC50 (µM)
One number for each entry, in µM.

Guide cases for IC50, answers given:
[
  {
    "molecule": "OC[C@@H]1[C@@H](O)[C@H](O)[C@@H](O)CN1Cc1ccc(CNc2ccc(-c3ccc[nH]3)cc2)cc1 [Compound 1094]",
    "IC50, µM": 0.177
  },
  {
    "molecule": "[N-]=[N+]=Nc1ccc(NCCCCCCN2C[C@H](O)[C@@H](O)[C@H](O)[C@H]2CO)c(C(N)=O)c1 [Compound 1296]",
    "IC50, µM": 0.029
  },
  {
    "molecule": "OC[C@@H]1[C@@H](O)[C@H](O)[C@@H](O)CN1CCCCCCNc1cc(-c2ncccn2)cc(C(F)(F)F)c1 [Compound 1131]",
    "IC50, µM": 0.003
  },
  {
    "molecule": "N#Cc1ccc(F)cc1NCCCCCCN1C[C@H](O)[C@@H](O)[C@H](O)[C@H]1CO [Compound 1251]",
    "IC50, µM": 0.012
  }
]

Quick batch: IC50 for everything below.
1. CS(=O)(=O)c1cc(NCc2ccc(CN3C[C@H](O)[C@@H](O)[C@H](O)[C@H]3CO)cc2)cc(-c2cccnn2)c1 [Compound 1058]
2. O=S(=O)(Nc1cc(NCCCCCCN2C[C@H](O)[C@@H](O)[C@H](O)[C@H]2CO)cc(-c2ncccn2)c1)C1CC1 [Compound 1114]

[0.114, 0.003]

Quick request: IC50 for each listed item, please.
1. CC(=O)Nc1cc(NCCCCCCN2C[C@H](O)[C@@H](O)[C@H](O)[C@H]2CO)cc(-c2ncccn2)c1 [Compound 1125]
2. OC[C@@H]1[C@@H](O)[C@H](O)[C@@H](O)CN1CCc1ccc(CCNc2cc(Cl)cc(-c3ccco3)c2)cc1 [Compound 1159]

[0.019, 0.091]

Return reported IC50 values for all items listed beneath this line.
1. Cc1cc(-c2ncccn2)ccc1NCCCCCCN1C[C@H](O)[C@@H](O)[C@H](O)[C@H]1CO [Compound 1233]
2. OC[C@@H]1[C@@H](O)[C@H](O)[C@@H](O)CN1CCCCCCNc1cc(Cl)cc(-c2ncccn2)c1 [Compound 1212]
3. OC[C@@H]1[C@@H](O)[C@H](O)[C@@H](O)CN1Cc1cccc(CNc2ccc(-c3cccnn3)cc2)c1 [Compound 1083]
4. N#Cc1ccc(NCCCCCCN2C[C@H](O)[C@@H](O)[C@H](O)[C@H]2CO)c([N+](=O)[O-])c1 [Compound 1304]

1: 0.023; 2: 0.005; 3: 9.99; 4: 0.022

// query IC50 value for entry O=[N+]([O-])c1cc(-c2ncccn2)ccc1NCc1ccc(CN2C[C@H](O)[C@@H](O)[C@H](O)[C@H]2CO)cc1 [Compound 1102]
0.064

###

experimental.target: recombinant alpha-glucosidase I (human full-length glucosidase I, Glu 1) (Homo sapiens, UniProt Q13724)
Construct: 6-His (C); made in house; host or cells: HEK-293T cells transduced with BacMam virus (virus raised in Sf9)
Sequence (Q13724 1-837): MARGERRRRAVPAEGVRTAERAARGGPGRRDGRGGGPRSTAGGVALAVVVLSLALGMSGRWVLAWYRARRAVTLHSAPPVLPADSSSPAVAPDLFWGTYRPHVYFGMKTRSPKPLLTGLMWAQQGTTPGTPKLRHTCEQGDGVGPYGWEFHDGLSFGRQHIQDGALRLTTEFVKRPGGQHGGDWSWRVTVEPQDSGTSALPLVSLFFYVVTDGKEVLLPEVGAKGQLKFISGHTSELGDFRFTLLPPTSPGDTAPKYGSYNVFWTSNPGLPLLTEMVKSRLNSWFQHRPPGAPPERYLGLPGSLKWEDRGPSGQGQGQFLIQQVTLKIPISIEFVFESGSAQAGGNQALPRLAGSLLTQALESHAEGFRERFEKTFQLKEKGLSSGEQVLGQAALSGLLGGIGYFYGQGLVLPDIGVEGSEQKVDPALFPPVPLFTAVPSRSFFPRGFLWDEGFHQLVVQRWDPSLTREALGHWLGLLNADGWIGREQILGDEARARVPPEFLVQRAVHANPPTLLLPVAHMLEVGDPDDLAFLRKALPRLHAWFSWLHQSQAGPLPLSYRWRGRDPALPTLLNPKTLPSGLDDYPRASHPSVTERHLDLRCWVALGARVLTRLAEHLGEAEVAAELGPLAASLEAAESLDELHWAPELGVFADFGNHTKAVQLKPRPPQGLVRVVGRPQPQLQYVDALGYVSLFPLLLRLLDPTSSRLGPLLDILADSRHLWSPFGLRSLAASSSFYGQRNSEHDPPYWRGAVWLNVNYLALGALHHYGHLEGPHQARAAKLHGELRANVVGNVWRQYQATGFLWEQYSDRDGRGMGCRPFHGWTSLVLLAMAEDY
assay.remarks: Alpha-glucosidase I assay (Amplex Red glucose detection, synthetic trisaccharide substrate)
Type: biochemical
assay.context: Glucosidase 1; read-out: Glu 1 IC50
measured.metric: pIC50
Numbers only, as −log10 of the molar value.

Each compound below has a reported value. Please supply its pIC50.
1. COc1cc(NCCc2ccc(CCN3C[C@H](O)[C@@H](O)[C@H](O)[C@H]3CO)cc2)cc(-c2ncccn2)c1 [Compound 1156]
2. [N-]=[N+]=Nc1ccc(NCCNc2cc(Cl)cc(CCN3C[C@H](O)[C@@H](O)[C@H](O)[C@H]3CO)c2)c([N+](=O)[O-])c1 [Compound 1143]
3. [N-]=[N+]=Nc1ccc(NCCN2CC(OCCN3C[C@H](O)[C@@H](O)[C@H](O)[C@H]3CO)C2)c([N+](=O)[O-])c1 [Compound 1271]
4. CN(C)C(=O)c1cc(NCCCCCCN2C[C@H](O)[C@@H](O)[C@H](O)[C@H]2CO)cc(-c2ncccn2)c1 [Compound 1126]

5.90
6.48
5.97
6.26

Lab note: each compound below needs its pIC50 filled in.
1. OC[C@@H]1[C@@H](O)[C@H](O)[C@@H](O)CN1CCCCCCNc1cc(Cl)cc(CN2CCCO2)c1 [Compound 1183]
2. CC(C)c1cc(CCNc2ccc(N=[N+]=[N-])cc2[N+](=O)[O-])cc(CCN2C[C@H](O)[C@@H](O)[C@H](O)[C@H]2CO)c1 [Compound 1077]

1: 6.81; 2: 6.16

###

experimental.target: recombinant human GBA (beta-glucocerebrosidase) (Homo sapiens, UniProt P04062)
Sequence (P04062 40-536): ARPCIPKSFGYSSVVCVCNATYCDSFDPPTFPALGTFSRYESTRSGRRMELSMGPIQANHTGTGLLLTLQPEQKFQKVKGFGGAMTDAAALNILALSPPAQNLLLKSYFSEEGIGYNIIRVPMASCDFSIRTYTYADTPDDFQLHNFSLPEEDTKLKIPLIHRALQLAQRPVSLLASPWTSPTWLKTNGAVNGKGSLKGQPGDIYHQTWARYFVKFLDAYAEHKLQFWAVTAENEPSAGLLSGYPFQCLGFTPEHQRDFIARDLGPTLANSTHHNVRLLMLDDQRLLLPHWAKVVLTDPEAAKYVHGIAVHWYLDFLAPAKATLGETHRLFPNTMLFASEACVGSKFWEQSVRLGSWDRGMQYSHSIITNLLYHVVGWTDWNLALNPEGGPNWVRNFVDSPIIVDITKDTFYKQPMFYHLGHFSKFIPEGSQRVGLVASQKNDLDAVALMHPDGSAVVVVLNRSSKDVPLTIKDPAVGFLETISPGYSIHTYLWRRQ
assay.remarks: Beta-glucocerebrosidase (GBA, glucosylceramidase) assay (4-methylumbelliferyl-beta-D-pyranoside substrate, fluorescence)
pIC50: −log10 of the molar value.
Classification field: MET = pIC50 at or over 5; NOT MET = pIC50 under 5.

[
  {
    "molecule": "OC[C@@H]1[C@@H](O)[C@H](O)[C@@H](O)CN1Cc1ccc(CNc2ccc(N3CCOCC3)cc2)cc1 [Compound 1068]",
    "group.label": "NOT MET"
  }
]

Entry [N-]=[N+]=Nc1ccc(NCc2cccc(CN3C[C@H](O)[C@@H](O)[C@H](O)[C@H]3CO)c2)c([N+](=O)[O-])c1 [Compound 1169] : is its pIC50 no less than 5?
NOT MET

Same lookup for [N-]=[N+]=Nc1ccc(NCCc2cc(CCN3C[C@H](O)[C@@H](O)[C@H](O)[C@H]3CO)cc(C3CCCCC3)c2)c([N+](=O)[O-])c1 [Compound 1115] , please.
MET

Repeat with CN(C)Cc1ccc(NCCCCCCN2C[C@H](O)[C@@H](O)[C@H](O)[C@H]2CO)c(F)c1 [Compound 1236]
MET

Check OC[C@@H]1[C@@H](O)[C@H](O)[C@@H](O)CN1CCCCCCNc1cc(Cl)cc(-c2cnccn2)c1 [Compound 1196] too.
MET

###

Please provide measured log10 of IC50 for the entries that follow.
experimental.target: rat sucrase (partially purified alpha-glucosidase from intestinal rat powder) (Rattus norvegicus, UniProt P23739)
Sequence (P23739 whole entry): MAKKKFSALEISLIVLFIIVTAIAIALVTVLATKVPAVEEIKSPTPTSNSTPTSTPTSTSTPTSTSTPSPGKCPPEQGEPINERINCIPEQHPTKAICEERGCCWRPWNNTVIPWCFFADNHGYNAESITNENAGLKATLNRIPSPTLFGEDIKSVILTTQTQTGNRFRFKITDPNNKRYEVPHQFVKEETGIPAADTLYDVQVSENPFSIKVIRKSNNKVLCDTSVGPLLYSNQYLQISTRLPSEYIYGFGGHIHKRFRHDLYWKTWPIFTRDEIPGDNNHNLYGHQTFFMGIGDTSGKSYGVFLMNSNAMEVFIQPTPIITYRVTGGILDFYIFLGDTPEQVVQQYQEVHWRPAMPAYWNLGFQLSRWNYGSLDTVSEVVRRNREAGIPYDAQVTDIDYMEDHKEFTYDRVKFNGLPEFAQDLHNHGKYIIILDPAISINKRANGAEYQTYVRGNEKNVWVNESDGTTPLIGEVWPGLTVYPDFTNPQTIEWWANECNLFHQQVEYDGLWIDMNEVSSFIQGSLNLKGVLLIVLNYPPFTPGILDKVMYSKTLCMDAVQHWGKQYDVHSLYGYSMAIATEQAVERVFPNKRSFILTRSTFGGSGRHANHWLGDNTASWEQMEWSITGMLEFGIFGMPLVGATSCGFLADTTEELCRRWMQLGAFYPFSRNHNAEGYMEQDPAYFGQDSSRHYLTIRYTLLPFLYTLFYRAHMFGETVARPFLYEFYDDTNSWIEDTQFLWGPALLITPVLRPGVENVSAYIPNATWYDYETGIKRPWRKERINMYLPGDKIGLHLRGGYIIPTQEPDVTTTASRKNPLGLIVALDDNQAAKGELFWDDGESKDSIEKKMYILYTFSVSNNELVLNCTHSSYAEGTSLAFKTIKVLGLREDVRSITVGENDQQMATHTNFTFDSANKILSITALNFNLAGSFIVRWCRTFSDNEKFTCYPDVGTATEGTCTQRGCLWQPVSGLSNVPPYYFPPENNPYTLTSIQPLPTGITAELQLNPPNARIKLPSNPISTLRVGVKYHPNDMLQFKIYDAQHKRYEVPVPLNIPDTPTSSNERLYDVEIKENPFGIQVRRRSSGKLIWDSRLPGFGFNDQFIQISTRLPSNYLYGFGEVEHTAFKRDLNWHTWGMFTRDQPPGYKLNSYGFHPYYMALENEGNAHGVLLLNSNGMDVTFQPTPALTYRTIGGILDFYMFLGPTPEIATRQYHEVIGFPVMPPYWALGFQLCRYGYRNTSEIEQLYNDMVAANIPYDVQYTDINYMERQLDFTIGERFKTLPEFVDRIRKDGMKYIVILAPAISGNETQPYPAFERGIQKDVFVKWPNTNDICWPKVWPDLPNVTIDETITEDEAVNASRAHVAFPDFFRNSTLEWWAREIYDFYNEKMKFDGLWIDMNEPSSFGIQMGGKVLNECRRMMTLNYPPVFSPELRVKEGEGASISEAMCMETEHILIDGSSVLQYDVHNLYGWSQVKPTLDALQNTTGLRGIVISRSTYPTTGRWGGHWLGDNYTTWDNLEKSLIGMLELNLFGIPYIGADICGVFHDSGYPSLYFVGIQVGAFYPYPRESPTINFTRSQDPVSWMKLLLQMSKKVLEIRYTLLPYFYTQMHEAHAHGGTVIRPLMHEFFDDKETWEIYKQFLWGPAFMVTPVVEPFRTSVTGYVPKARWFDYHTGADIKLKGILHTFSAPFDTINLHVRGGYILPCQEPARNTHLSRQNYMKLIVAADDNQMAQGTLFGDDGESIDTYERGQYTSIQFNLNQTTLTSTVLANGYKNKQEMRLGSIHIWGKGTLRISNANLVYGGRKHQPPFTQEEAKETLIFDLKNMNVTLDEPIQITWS
Hello, just confirming the data are log10 of IC50 with units of nM.

Use these answered entries as a reference point.
[
  {
    "record.smiles": "CS(=O)(=O)Nc1ccc(NCCCCCCN2C[C@H](O)[C@@H](O)[C@H](O)[C@H]2CO)c([N+](=O)[O-])c1",
    "log10 of IC50": 1.72
  },
  {
    "record.smiles": "[N-]=[N+]=Nc1ccc(NCCNc2cc(Cl)cc(CCN3C[C@H](O)[C@@H](O)[C@H](O)[C@H]3CO)c2)c([N+](=O)[O-])c1",
    "log10 of IC50": 3.30
  },
  {
    "record.smiles": "CN(Cc1cccc(CN2C[C@H](O)[C@@H](O)[C@H](O)[C@H]2CO)c1)c1ccc(CN2CCCO2)cc1[N+](=O)[O-]",
    "log10 of IC50": 2.11
  }
]

Dear reader, for each entry below, please note its log10 of IC50.
1. COc1cc(NCCCCCCN2C[C@H](O)[C@@H](O)[C@H](O)[C@H]2CO)cc(-c2cnccn2)c1
2. O=[N+]([O-])c1cc(CN2CCCO2)ccc1NCc1ccc(CN2C[C@H](O)[C@@H](O)[C@H](O)[C@H]2CO)cc1

1. 2.25
2. 1.60
